SUBJECT OF TEST: Cbl-b (Homo sapiens, UniProt Q13191)
Sequence (Q13191 whole entry, species assumed): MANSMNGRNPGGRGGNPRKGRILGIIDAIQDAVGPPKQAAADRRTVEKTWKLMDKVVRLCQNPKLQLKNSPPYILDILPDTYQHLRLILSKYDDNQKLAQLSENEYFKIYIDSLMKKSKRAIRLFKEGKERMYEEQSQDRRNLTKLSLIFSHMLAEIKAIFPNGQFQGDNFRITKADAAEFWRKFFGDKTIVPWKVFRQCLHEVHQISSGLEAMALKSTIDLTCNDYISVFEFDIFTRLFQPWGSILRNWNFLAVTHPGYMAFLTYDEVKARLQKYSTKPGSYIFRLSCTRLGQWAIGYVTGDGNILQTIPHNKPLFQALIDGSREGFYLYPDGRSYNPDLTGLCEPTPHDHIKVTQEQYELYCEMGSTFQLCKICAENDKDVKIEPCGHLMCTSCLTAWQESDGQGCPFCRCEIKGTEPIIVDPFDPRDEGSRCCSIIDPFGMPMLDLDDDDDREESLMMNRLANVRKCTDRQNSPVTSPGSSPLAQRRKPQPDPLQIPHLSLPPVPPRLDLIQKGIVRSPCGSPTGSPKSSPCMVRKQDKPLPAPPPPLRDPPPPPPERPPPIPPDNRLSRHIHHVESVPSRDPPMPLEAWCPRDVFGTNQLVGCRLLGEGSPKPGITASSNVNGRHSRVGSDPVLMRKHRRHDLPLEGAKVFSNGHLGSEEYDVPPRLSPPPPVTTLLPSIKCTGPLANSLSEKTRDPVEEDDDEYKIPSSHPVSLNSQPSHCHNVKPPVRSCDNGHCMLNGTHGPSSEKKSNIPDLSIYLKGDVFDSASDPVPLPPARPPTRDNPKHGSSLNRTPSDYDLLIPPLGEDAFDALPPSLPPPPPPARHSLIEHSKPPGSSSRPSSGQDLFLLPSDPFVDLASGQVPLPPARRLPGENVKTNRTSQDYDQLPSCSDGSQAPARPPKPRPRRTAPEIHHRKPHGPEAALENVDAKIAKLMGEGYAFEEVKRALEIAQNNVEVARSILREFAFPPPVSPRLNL
Entries and their IC50

CCOc1cc(-c2c(F)cc(Cl)cc2C(=O)N2CC(F)(F)C2)cc(NC(=O)c2cc(CNC[C@H](C)OC)cn(C3CC3)c2=O)n1: < 0.1 µM
Cn1ccnc1-c1cc(C#N)ccc1-c1cc(NC(=O)c2cc(CO)cn(C3CC3)c2=O)nc(C2CC2)c1 (single isomer, unassigned): 0.1 to 1 µM

Next item in the queue.
Q. Return IC50 measured with Cbl-b (Homo sapiens, UniProt Q13191) given this compound: "CO[C@@H](C)CNCc1cc(C(=O)Nc2cc(-c3ccc(OC(F)F)cc3C(=O)N3CC(F)C3)cc(OC(C)C)n2)c(=O)n(C)c1"
A. < 0.1 µM

# credit: patent US20260116868A1
